Catalogue of binders with associated FACS geometric mean fold change over Jurkat parental
system-name: T1, huCD33-G69 stably expressed on Jurkat cells (human, UniProt P20138 18-364)
T1 construct: whole, on cells; >200,000 receptors per cell; also called CD33 Mutant; CD33 R69G
T1 sequence (P20138 18-364 R69G): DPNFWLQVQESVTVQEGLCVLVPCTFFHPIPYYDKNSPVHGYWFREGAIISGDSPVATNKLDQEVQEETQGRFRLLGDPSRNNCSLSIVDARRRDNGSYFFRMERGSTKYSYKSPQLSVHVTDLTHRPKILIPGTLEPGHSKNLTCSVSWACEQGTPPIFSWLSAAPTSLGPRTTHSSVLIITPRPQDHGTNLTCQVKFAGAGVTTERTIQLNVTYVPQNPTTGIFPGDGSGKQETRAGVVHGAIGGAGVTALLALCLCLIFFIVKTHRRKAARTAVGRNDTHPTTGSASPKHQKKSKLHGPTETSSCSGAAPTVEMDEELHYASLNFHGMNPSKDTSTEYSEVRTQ
experimental-protocol: FACS on cells;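 further: fixed Jurkat lines probed with myc-tagged scFv periplasmic extracts, anti-myc PE flow cytometry, PE MFI fold binned − <2, + 2–10, ++ 10–30, +++ >30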

binder	result
Polypeptide No. 118 (scFv, V domains shown, scFv) VH: EVQLVESGGGLVKPGGSLRLSCAASGFTISNAWMSWVRQAPGKGLEWVAHIWNDGSQKYYADSVKGRFTISRDDSKNTLYLQMNSLKTEDTAVYYCARDGALGVGPDDYWGQGTLVTVSS VL: DIVMTQSPLSLPVTPGEPASISCRSSQSLLHSNGYNYLDWYLQKPGQSPQLLIYAASSLQSGVPDRFSGSGSGTDFTLKISRVEAEDVGVYYCMQGLQTPHTFGGGTKVEIKR	2 to 10 fold

## Task Note down FACS geometric mean fold change over Jurkat parental recorded for Polypeptide No. 100 (scFv, V domains shown, scFv) VH: QVQLVQSGAEVKKPGASVKVSCKASGATRSWMHWVRQAPGQGLEWMGIINPSGDSTSYAQKFQGRVTMTRDTSTSTVYMELSSLRSEDTAVYYCAKEPYSSSPYYFDYWGQGTLVTVSS VL: DIQMTQSPSSLSASVGDRVTITCRASQSISSWLAWYQQKPGKAPKLLIYGASSLQSGVPSRFSGSGSGTDFTLTISSLQPEDFATYYCQQSYTTPITFGQGTRLEIKR
## Result 10 to 30 fold

## Task Note down FACS geometric mean fold change over Jurkat parental recorded for Polypeptide No. 112 (scFv, V domains shown, scFv) VH: QVQLVQSGAEVKKPGSSVKVSCKASGSTLTGYDIHWVRQAPGQGLEWMGGIIPFLGTASYAQEFQGRVTITADESTSTAYMELSSLRSEDTAVYYCARGGGSGYDLDYWGQGTLVTVSS VL: DIQMTQSPSSLSASVGDRVTITCRSSESISSWLAWYQQKPGKAPKLLIYSASTLQSGVPSRFSGSGSGTDFTLTISSLQPEDFATYYCQQSYSTPVTFGQGTRLEIKR
## Result 2 to 10 fold

## Task Note down FACS geometric mean fold change over Jurkat parental recorded for Polypeptide No. 110 (scFv, V domains shown, scFv) VH: QVQLVQSGAEVKKPGASVKVSCKASGYTFTDYYVHWVRQAPGQGLEWMGWMNPNSGNTGYAQKFQGRVTMTRDTSTSTVYMELSSLRSEDTAVYYCARDFIWVEGYLASPPPRFDYWGQGTLVTVSS VL: DIQMTQSPSSLSASVGDRVTITCRASQRIGNWLAWYQQKPGKAPKLLIYAASSLQSGVPSRFSGSGSGTDFTLTISSLQPEDFATYYCQQSYSTPLTFGQGTKLEIKR
## Result > 30 fold

## Task Note down FACS geometric mean fold change over Jurkat parental recorded for Polypeptide No. 105 (scFv, V domains shown, scFv) VH: EVQLLESGGGLVQPGGSLRLSCAASGFTFNNAWMTWVRQAPGKGLEWVAVISYDGSNKYYADSVKGRFTISRDNSKNTLYLQMNSLRAEDTAVYYCARMAVAGKGAFDIWGQGTMVTVSS VL: DIQMTQSPSSLSASVGDRVTITCRASQSIYSWLAWYQQKPGKAPKLLIYAASTLQSGVPSRFSGSGSGTDFTLTISSLQPEDFATYYCQQTYSTPVTFGQGTKVEIKR
## Result 10 to 30 fold

Each recorded value in this set is attributed to patent US20240101668A1.
